Entries and their measured viability at 72 h follow.
- method-summary: Cytotoxicity assay (CCK-8, 72 h) in Vero E6 cells
- Assay type: cell-based, African green monkey
- condition-info: African green monkey, Vero E6 cells, Vero; Concentration 0.123457; two replicates; read-out: cell viability (% of DMSO control)
# value in %; strip the unit string

molecule	viability at 72 h [%]
CCC(CC)COC(=O)[C@H](C)N[P@](=O)(OC[C@H]1O[C@@](C#N)(c2ccc3c(N)ncnn23)[C@H](O)[C@@H]1O)Oc1ccccc1	80.3

Attention now turns to another entry.
Using the record for CCN(CC)CCCC(C)Nc1ccnc2cc(Cl)ccc12 (centres unmarked) , report its viability at 72 h.
83.5
